System: Hut 78
Test: Cytotoxic activity (M) panel, Lymphoma Cutaneus T cell Hut 78
Conditions: Homo sapiens, HuT78, read-out: CYTOTOXIC ACTIVITY (M) Hut 78, leukemias & lymphomas, Lymphoma Cutaneus T cell, line Hut 78
assay_readout: log10 IC50 (log10 of the value in M)
Use the decimal logarithm of IC50 (M).

Prompt line: What does the data say about its log10 IC50? Entry: CCCCCC(=O)NC[C@H]1c2c(c(OC(C)=O)c(C)c3c2OCO3)CC2[C@H]3c4c(cc(C)c(OC)c4O)C[C@@H]([C@H](O)N21)N3C (stereo partly drawn) [drawing 230]
Response line: -8.71

Prompt line: Next record, please: COc1c(C)cc2c(c1O)[C@@H]1C3Cc4c(OC(C)=O)c(C)c5c(c4[C@H](CNC(=O)[C@H](C)NC(=O)C(F)(F)F)N3[C@@H](O)[C@H](C2)N1C)OCO5 (stereo partly drawn) [drawing 219]
Response line: -9.59

Prompt line: Next record, please: COc1c(C)cc2c(c1O)[C@@H]1C3Cc4c(OC(C)=O)c(C)c5c(c4[C@H](CNC(=O)CCc4ccccc4)N3[C@@H](O)[C@H](C2)N1C)OCO5 (stereo partly drawn) [drawing 221]
Response line: -10.21

Prompt line: Next record, please: COc1c(C)cc2c(c1O)[C@@H]1C3Cc4c(OC(C)=O)c(C)c5c(c4[C@H](COC(=O)/C=C/c4cccc(C(F)(F)F)c4)N3[C@@H](O)[C@H](C2)N1C)OCO5 (stereo partly drawn) [drawing 237]
Response line: -7.19

Prompt line: Next record, please: COc1c(C)cc2c(c1O)[C@@H]1C3Cc4c(OC(C)=O)c(C)c5c(c4[C@H](CNC(=O)[C@H](C)NC(=O)Cc4ccccc4)N3[C@@H](O)[C@H](C2)N1C)OCO5 (stereo partly drawn) [drawing 223]
Response line: -7.97

Prompt line: Next record, please: COc1c(C)cc2c(c1O)[C@@H]1C3Cc4c(OC(C)=O)c(C)c5c(c4[C@H](CNC(=O)/C=C/c4ccccc4)N3[C@@H](O)[C@H](C2)N1C)OCO5 (stereo partly drawn) [drawing 220]
Response line: -8.34
